# System: BT-549 breast
# Protocol description: NCI tumour cell line growth inhibition, 48 h; in the data active = GI50 below about 0.43 µM; inactive = the rest
// classify into active, inactive

**Q:** Give the logged outcome of this assay for the following compound: [O-][n+]1ccccc1S
**A:** inactive

**Q:** Give the logged outcome of this assay for the following compound: O=C(/C(=C\c1ccc([N+](=O)[O-])cc1)S(=O)Cc1ccc(F)cc1)c1ccc(F)cc1 (stereo not given)
**A:** inactive

**Q:** Give the logged outcome of this assay for the following compound: Clc1ccc2c(c1)N(c1ncnc3ccc(-c4cnc5[nH]ccc5c4)cc13)CC2
**A:** inactive

**Q:** Give the logged outcome of this assay for the following compound: CC(=O)c1cc(C(=O)c2ccc3c(c2)Sc2ccccc2N3)c2c(C)cc(C)cn12
**A:** active

**Q:** Give the logged outcome of this assay for the following compound: COc1cc(-c2nc3ccccc3s2)ccc1NC(=O)COc1ccc(Cl)cc1
**A:** inactive

More entries:
**Q:** Give the logged outcome of this assay for the following compound: CC1(C)CCC2=C(O1)c1ccccc1C(=O)C2=O
**A:** inactive

**Q:** Give the logged outcome of this assay for the following compound: O=C1NC(=O)C(=C/C=C/c2ccccc2)C(=O)N1
**A:** inactive

**Q:** Give the logged outcome of this assay for the following compound: Oc1ccc(O)c(-c2cn3ccsc3n2)c1
**A:** inactive

====

# Test system: SK-MEL-5 melanoma
# Protocol description: NCI tumour cell line growth inhibition, 48 h
Examples of molecules with documented TGI follow.

As a guide, the following entries are already answered.
**Q:** // query TGI value for entry CC(=O)Oc1ccccc1/C=C/C(=O)/C=C/c1ccccc1OC(C)=O
**A:** 3.45 µM

**Q:** // query TGI value for entry CC(=O)c1ccc(OCC(O)CO)cc1 (stereo not given)
**A:** > 100 µM

More entries:
**Q:** // query TGI value for entry CCc1n[nH]c(=O)n1/N=C/c1ccc(C)cc1
**A:** > 100 µM

**Q:** // query TGI value for entry Cc1ccc(NC(=O)C(=O)C(C#N)c2nc(-c3ccc(-c4ccccc4)cc3)cs2)c(C)c1 (stereo not given)
**A:** > 100 µM

**Q:** // query TGI value for entry Cc1[nH]nc(N)c1C(N)=O
**A:** > 100 µM

====

# System: M14 melanoma
# Protocol description: NCI tumour cell line growth inhibition, 48 h
Please mark Y if the recorded TGI is equal to or greater than 30 µM, and N if it falls below.

Previously resolved entries follow.
**Q:** Threshold query (TGI >= 30 µM) on COc1ccc(C(SCC(N)C(=O)O)(c2ccccc2)c2ccccc2)cc1 (configuration not stated)
**A:** N

**Q:** Threshold query (TGI >= 30 µM) on NC(=S)N/N=C1\NC(=O)/C(=C/c2ccc3c(c2)OCO3)S1
**A:** Y

**Q:** Threshold query (TGI >= 30 µM) on CCOC(=O)CSc1nnc2cc(CN3CCCC3)c(-c3ccc(Cl)cc3)nn12
**A:** Y

More entries:
**Q:** Threshold query (TGI >= 30 µM) on COc1cc(C2C(C#N)=C(N)OC3=C2CCS(=O)(=O)c2ccc(C)cc23)cc(OC)c1OC (configuration not stated)
**A:** Y

**Q:** Threshold query (TGI >= 30 µM) on O=C1c2nsnc2C(=O)c2c(F)c(F)c(F)c(F)c21
**A:** N

**Q:** Threshold query (TGI >= 30 µM) on c1ccc(CNCCCCNCCCNCc2ccccc2)cc1
**A:** Y

**Q:** Threshold query (TGI >= 30 µM) on Clc1ccc2c(c1)N(CCCN1CCCC1)c1ccccc1S2
**A:** N

**Q:** Threshold query (TGI >= 30 µM) on O=C(CN(/C=C/C(=O)C(F)(F)F)c1ccc(Cl)cc1)c1ccccc1
**A:** N

====

Examples of molecules with documented TGI follow.
# System: MOLT-4 leukemia
# Protocol description: NCI tumour cell line growth inhibition, 48 h

**Q:** // query TGI value for entry O=C(c1ccccc1)[C@H]1Nc2ccc(Cl)cc2C2c3ccccc3CC21 (stereo not given in full)
**A:** > 100 µM

More entries:
**Q:** // query TGI value for entry CCCCCCCCCCCCCCCCOCC(Cl)COP(=O)(O)OP(=O)(O)OCC1OC(n2cc(C)c(=O)[nH]c2=O)CC1O (stereo not given)
**A:** > 100 µM

**Q:** // query TGI value for entry Cn1cc(C2=C(c3cn(C)c4c([N+](=O)[O-])cccc34)C(=O)NC2=O)c2ccccc21
**A:** > 25 µM

**Q:** // query TGI value for entry Cc1ccc(Nc2c(C#N)[n+]([O-])c3cc(Cl)ccc3[n+]2[O-])cc1
**A:** > 100 µM

**Q:** // query TGI value for entry CCOC(=O)c1c(Cl)nc2ccccc2c1N=[N+]=[N-]
**A:** > 100 µM

====

Examples of compounds with documented TGI follow.
# Tested on: SK-MEL-2 melanoma
# Protocol description: NCI tumour cell line growth inhibition, 48 h

**Q:** // query TGI value for entry O=C1NC(=O)C2(CCCCCC2)N1
**A:** > 100 µM

**Q:** // query TGI value for entry O=C1c2ccccc2C(=O)N1CCN(CCN1C(=O)c2ccccc2C1=O)Cn1cccn1
**A:** > 100 µM

**Q:** // query TGI value for entry CCN(CC)c1ccc2cc(C(=O)Nc3ccccc3)c(=N)oc2c1
**A:** > 100 µM

**Q:** // query TGI value for entry O=C(N/N=C/c1cc(Cl)cc(Cl)c1[O-])c1ccccc1O.O=C(N/N=C/c1cc(Cl)cc(Cl)c1[O-])c1ccccc1O.[Zn+2]
**A:** 11.5 µM

**Q:** // query TGI value for entry O=c1ccn(C2OC(CO)C(O)C2[Se]c2ccccc2)c(=O)[nH]1 (configuration not stated)
**A:** > 100 µM

More entries:
**Q:** // query TGI value for entry CO[C@@H]1C=C[C@@]23c4cc5c(cc4C(=O)O[C@H]2CN(C)[C@H]3C1)OCO5
**A:** > 100 µM

**Q:** // query TGI value for entry CN(C)CCNC(=O)C(C)(C)Oc1ccc(C(=O)c2ccc(Cl)cc2)cc1Cl
**A:** 32.6 µM

**Q:** // query TGI value for entry COc1cc(C2C(C#N)=C(N)OC3=C2CCS(=O)(=O)c2ccc(C)cc23)cc(OC)c1OC (configuration not stated)
**A:** > 100 µM

**Q:** // query TGI value for entry O=C(O)c1ccc(NC(NC(=O)C(C(F)(F)F)C(F)(F)F)(C(F)(F)F)C(F)(F)F)cc1
**A:** > 100 µM

**Q:** // query TGI value for entry CCOc1ccc(N/C(Cl)=C(Cl)\C(=C(\Nc2ccc(OCC)cc2)n2nnc3ccccc32)[N+](=O)[O-])cc1
**A:** 35.5 µM

====

# System: HT29 colon
# Protocol description: NCI tumour cell line growth inhibition, 48 h
Examples of compounds with documented log10(TGI) follow.
Please keep in mind that the values are log10 of TGI expressed in µM.

As a guide, the following entries are already answered.
**Q:** // query log10(TGI) value for entry N#Cc1c2c(c(N=P(c3ccccc3)(c3ccccc3)c3ccccc3)n3c1nc1ccccc13)CCCC2
**A:** 1.87

**Q:** // query log10(TGI) value for entry O=C1Nc2c(C(F)(F)F)cccc2[C@@]1(c1ccc(O)cc1)c1ccc(OC(F)(F)F)cc1
**A:** -1.36

**Q:** // query log10(TGI) value for entry CCC[C@H](NS(=O)c1ccc(C)cc1)C(C(=O)OCC)=C(c1ccccc1)c1ccccc1 (stereo partly specified)
**A:** 1.48

**Q:** // query log10(TGI) value for entry CCOC(=O)c1c(Cl)nc2ccccc2c1N=[N+]=[N-]
**A:** 1.53

**Q:** // query log10(TGI) value for entry Clc1cccc(Cl)c1C1CSc2ccccc2N=C1c1ccccc1 (stereo unspecified)
**A:** 0.94

More entries:
**Q:** // query log10(TGI) value for entry O=C(N/N=C/c1cc(Cl)cc(Cl)c1[O-])c1ccccc1O.O=C(N/N=C/c1cc(Cl)cc(Cl)c1[O-])c1ccccc1O.[Zn+2]
**A:** 1.14

====

# Test system: OVCAR-4 ovarian
# Protocol description: NCI tumour cell line growth inhibition, 48 h
Measured attribute: TGI

**Q:** Write down the reported TGI of CNC(=O)SCC(N)C(=O)O (stereo not drawn) , test system: OVCAR-4 ovarian.
**A:** > 100 µM

**Q:** Write down the reported TGI of CCOC(=O)CSC(=O)NCCCl , test system: OVCAR-4 ovarian.
**A:** > 100 µM

**Q:** Write down the reported TGI of NS(=O)(=O)c1ccc(NC2=CC(=O)C(=O)c3ccccc32)cc1 , test system: OVCAR-4 ovarian.
**A:** > 100 µM

**Q:** Write down the reported TGI of O=CNc1ncn[nH]1 , test system: OVCAR-4 ovarian.
**A:** > 100 µM

**Q:** Write down the reported TGI of COC(CC1(/C=C/O[Si](C(C)C)(C(C)C)C(C)C)C(=O)N(C)c2ccccc21)OC (stereo not drawn) , test system: OVCAR-4 ovarian.
**A:** > 100 µM

**Q:** Write down the reported TGI of CCCCCCCCOCC(O)COC(=O)CCCCCCC (stereo not drawn) , test system: OVCAR-4 ovarian.
**A:** > 100 µM

**Q:** Write down the reported TGI of CC1=NOC(=O)/C1=C/c1cccc2ccccc12 , test system: OVCAR-4 ovarian.
**A:** > 100 µM

**Q:** Write down the reported TGI of CCOC(=O)c1c(C)n2c(=O)cc(C)c3c(O)c(O)cc1c32 , test system: OVCAR-4 ovarian.
**A:** > 100 µM

**Q:** Write down the reported TGI of Oc1ccc(N=C2CCC(=C(c3ccccc3)c3ccc(Nc4ccc(O)cc4)cc3)CC2)cc1 , test system: OVCAR-4 ovarian.
**A:** > 100 µM

**Q:** Write down the reported TGI of Cc1ccc(-c2cc(C(F)(F)F)nn2-c2ccc(S(N)(=O)=O)cc2)cc1 , test system: OVCAR-4 ovarian.
**A:** 46.4 µM

More entries:
**Q:** Write down the reported TGI of N#Cc1ccccc1NC(=O)C(=O)c1c(O)c2ccccc2oc1=O , test system: OVCAR-4 ovarian.
**A:** > 100 µM

**Q:** Write down the reported TGI of Cc1nc(N/N=C/c2ccccc2Cl)[nH]c(=O)c1CCO , test system: OVCAR-4 ovarian.
**A:** > 100 µM

**Q:** Write down the reported TGI of Clc1cccc(Cl)c1C1CSc2ccccc2N=C1c1ccccc1 (stereo not drawn) , test system: OVCAR-4 ovarian.
**A:** 16 µM

**Q:** Write down the reported TGI of C[n+]1c(-c2ccc(/C=N/NC(=O)C(=O)N/N=C/c3ccc(-c4cn5ccsc5[n+]4C)cc3)cc2)cn2ccsc21 , test system: OVCAR-4 ovarian.
**A:** > 100 µM

**Q:** Write down the reported TGI of CN(C)CCNC(=O)C(C)(C)Oc1ccc(C(=O)c2ccc(Cl)cc2)cc1Cl , test system: OVCAR-4 ovarian.
**A:** 28 µM

**Q:** Write down the reported TGI of CC1=CC[C@@]2(CO)[C@@H]([C@@H]1C)[C@H]1CC[C@@H]3[C@@]4(C)CC[C@H](O)C(C)(C)[C@@H]4CC[C@@]3(C)[C@]1(C)C[C@@H]2O , test system: OVCAR-4 ovarian.
**A:** > 100 µM

**Q:** Write down the reported TGI of CC1(C)Cc2c(C#N)c(N)c3c(c2CO1)C(=O)OC3=O , test system: OVCAR-4 ovarian.
**A:** > 100 µM

**Q:** Write down the reported TGI of CC(=O)NC1=C(NCCN(C)C)C(=O)c2ccccc2C1=O , test system: OVCAR-4 ovarian.
**A:** 17.7 µM

Taken from PubChem BioAssay (NCI).
